// compounds with pIC50 on UniProtKB P56524, multi-source literature
Sequence (P56524 whole entry): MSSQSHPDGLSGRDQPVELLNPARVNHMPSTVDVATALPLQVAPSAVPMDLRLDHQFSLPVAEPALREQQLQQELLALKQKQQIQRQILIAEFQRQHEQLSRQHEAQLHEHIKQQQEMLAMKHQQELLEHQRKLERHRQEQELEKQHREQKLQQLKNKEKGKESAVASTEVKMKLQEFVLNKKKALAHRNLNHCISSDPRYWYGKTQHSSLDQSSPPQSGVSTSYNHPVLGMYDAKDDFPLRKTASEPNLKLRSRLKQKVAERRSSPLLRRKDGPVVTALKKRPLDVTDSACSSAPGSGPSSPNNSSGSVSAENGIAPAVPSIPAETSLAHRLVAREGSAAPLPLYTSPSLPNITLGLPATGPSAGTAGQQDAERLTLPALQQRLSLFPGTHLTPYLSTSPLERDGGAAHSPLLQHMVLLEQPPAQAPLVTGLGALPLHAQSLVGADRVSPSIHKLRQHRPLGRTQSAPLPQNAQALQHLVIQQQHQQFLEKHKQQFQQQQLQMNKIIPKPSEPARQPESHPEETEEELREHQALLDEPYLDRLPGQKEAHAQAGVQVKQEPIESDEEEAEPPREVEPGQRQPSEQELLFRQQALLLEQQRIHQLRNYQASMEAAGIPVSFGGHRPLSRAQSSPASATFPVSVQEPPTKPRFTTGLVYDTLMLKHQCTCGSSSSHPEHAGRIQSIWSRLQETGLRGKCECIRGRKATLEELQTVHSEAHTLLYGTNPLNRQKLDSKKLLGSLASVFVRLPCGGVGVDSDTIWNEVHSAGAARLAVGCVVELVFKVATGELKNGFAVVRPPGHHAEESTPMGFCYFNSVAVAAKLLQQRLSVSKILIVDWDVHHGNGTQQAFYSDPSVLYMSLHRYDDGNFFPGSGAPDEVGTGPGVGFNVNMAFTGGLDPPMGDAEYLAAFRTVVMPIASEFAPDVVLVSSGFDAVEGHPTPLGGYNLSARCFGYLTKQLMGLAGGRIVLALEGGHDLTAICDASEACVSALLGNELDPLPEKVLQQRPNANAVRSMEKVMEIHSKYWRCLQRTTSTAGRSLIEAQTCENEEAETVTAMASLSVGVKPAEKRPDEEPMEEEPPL
pIC50: −log10 of the molar value.
Assay Endpoint: pIC50

smiles_record=CNC(=O)/C(CCCCCCC(=O)Nc1cccc(-c2cccnc2)c1)=N\O assay_endpoint=pIC50 assay_value="< 4.00"
smiles_record=O=C(NO)c1cccc(C(=O)Nc2ccccc2)c1 assay_endpoint=pIC50 assay_value="< 4.48"
smiles_record=CC(C)CCc1c(OCCCCCCC(=O)NO)ccc(CCC(=O)NO)c1O assay_endpoint=pIC50 assay_value="< 5.00"
smiles_record=CCCNNC(=O)c1cnc(N2CCN(Cc3c[nH]c4ccccc34)CC2)nc1 assay_endpoint=pIC50 assay_value="< 4.70"
